Value source: ChEMBL document CHEMBL1201862

# Test system: A498
# assayMethodText: NCI tumour cell line growth inhibition, 48 h
The source made the active and inactive calls. No stated cut-off is given here; in the data, active = GI50 up to about 1.1 µM and inactive = higher. Where a SMILES comes first, the peptide text is derived from it. [ ]: non-standard residue; d: D form. Hiv = CC(C)[C@H](O)C(=O)O
readoutLabel: GI50

>>> obsvalue("O=C1OC(c2ccc(O)c(Cl)c2)(c2ccc(O)c(Cl)c2)c2ccc(Br)c3cccc1c23.O=C1OC(c2ccc(O)c(Cl)c2)(c2ccc(O)c(Cl)c2)c2cccc3c(Br)ccc1c23")
"18.7 µM (inactive)"

Task: Please supply the value of reported GI50 for the item C[N+](C)(C)c1ncnc2c1ncn2C1CCCO1 (stereo not given)
Result: > 100 µM (inactive)

Task: Please supply the value of reported GI50 for the item C#CC1(O)CCC2[C@@H]3CCc4cc(Oc5nc(F)nc(-c6c(C)c(C(=O)OCC)n7ccccc67)n5)ccc4C3CC[C@@]21C (stereo not given in full)
Result: > 100 µM (inactive)

Task: Please supply the value of reported GI50 for the item CC(C)[C@@H]1OC(=O)[C@@H](C)NC(=O)[C@@H]2CCCN2C1=O (cyclo([Hiv]-Pro-[dA]))
Result: > 100 µM (inactive)

Task: Please supply the value of reported GI50 for the item CN(C)/N=N/c1ccc(S(N)(=O)=O)cc1
Result: > 100 µM (inactive)
